Data origin: the Deep4Chem optical property database

Assay: photoluminescence quantum yield (fraction); solvent given as SMILES
Settings: in CC#N
outcome_measure: photoluminescence quantum yield
I only need the number, thanks.

Solved entries:
compound	photoluminescence quantum yield
COc1ccc(C2=CC(c3ccc(OC)cc3)=[O+][B-](C(C)=O)(C(C)=O)O2)cc1	0.7
COc1ccccc1-c1nc(-c2ccccc2)c2ccccn12	0.38
CC1(C)c2ccccc2N(c2ccc(-c3nc(-c4ccccc4)cc(-c4ccccc4)n3)cc2)c2ccccc21	0.018
CCC1=C(C)C2=Cc3c4ccccc4c4n3[B-](c3ccncc3)(Oc3ccccc3-4)[N+]2=C1C=Cc1ccc(OC)cc1 (centres undefined)	0.37
COc1ccc(/C=C/C2=[O+][B-](F)(F)OC(/C=C/c3ccc(OC)cc3)=C2c2ccccc2)cc1	0.42
Cc1ccccc1C(=O)NN1C2=C(CC3=C1CC(C)(C)CC3=O)C(=O)CC(C)(C)C2	0.7
Cc1cc2c(o1)c(C)cc1ccc(=O)oc12	0.001
COc1cc(OC)c(C2=C3C(C)=CC(C)=[N+]3[B-](F)(F)n3c(C)cc(C)c32)c(OC)c1	0.55

[Q] # get_value(readout='photoluminescence quantum yield', item= CCOC(=O)c1c2c3c(ccc(OC)c3c3cc4c(cc13)[Si](C)(C)O[Si]4(C)C)N(C)C2=O )
[A] 0.46

[Q] Queued: COc1ccc(C2=[O+][B-](F)(F)OC(c3ccc4c(c3)Cc3ccccc3-4)=C2)cc1
[A] 0.94

[Q] Same question, CC(C)(C)c1ccc2c(c1)sc1[n+]2[B-](F)(F)n2c(c3cccc4cccc2c43)=N1 this time
[A] 0.93

[Q] How about this compound: C(=C\c1nc2c3ccccc3c3ccccc3c2o1)/c1ccccc1
[A] 0.23

[Q] For CCOC(=O)COc1ccc(/C=C/c2c(CC)c(C)c3n2[B-](F)(F)[N+]2=C(c4[nH]c(C)c(CC)c4C)c4ccccc4C2=C3C)cc1 then?
[A] 0.09

[Q] Could you do the same for O=c1c2ccccc2c2c3c(cccc13)c(-c1ccccc1)c1c3cccc4cccc(c43)c12 , please?
[A] 0.91

[Q] How about this compound: Cn1c(/C=C/c2ccc(/C=C/c3nc4ccccc4[nH]3)cc2)[n+](C)c2ccccc21
[A] 0.109

[Q] What do we get for O=C(c1ccc(N(c2ccccc2)c2ccccc2)cc1)[C@H]1[C@H](c2ccccc2)C[C@](O)(c2ccccn2)C[C@]1(O)c1ccccn1 ?
[A] 0.02

[Q] How about this compound: Fc1nc(F)c(F)c(/C=C2/C(c3c(F)c(F)nc(F)c3F)=Cc3ccccc32)c1F
[A] 0.01

----------
Assay: photoluminescence quantum yield (fraction); solvent given as SMILES
Settings: in C1CCCCC1
photoluminescence quantum yield overview
Kindly provide the number alone.

For orientation, consider the following solved cases.
chem_smiles	outcome_measure	reported_value
CC(C)(C)c1ccc(C2=C(Br)C3=C(c4ccccc4)c4c(Br)c(-c5ccc(C(C)(C)C)cc5)c(-c5ccc(C(C)(C)C)cc5)n4[B-](F)(F)[N+]3=C2c2ccc(C(C)(C)C)cc2)cc1	photoluminescence quantum yield	0.13
CN(C)c1ccc(C(=O)Nc2cccc(Cl)c2)cc1	photoluminescence quantum yield	0.0031
CCN(CC)c1ccc2c(c1)oc(=O)c1c(C)nc3c(c(-c4ccccc4)nn3C)c12	photoluminescence quantum yield	0.699
COc1ccc(/C=C/c2nc3ccccc3o2)cc1	photoluminescence quantum yield	0.006
COc1cc(OC)c2c(c1)C(=O)c1ccc(OC)cc1-2	photoluminescence quantum yield	0.0095

[Q] Data request, read-out photoluminescence quantum yield, for C[Si](C)(c1cccc2ccccc12)[Si](C)(C)[Si](C)(C)[Si](C)(C)[Si](C)(C)[Si](C)(C)c1c2ccccc2cc2ccccc12
[A] 0.5

[Q] # iterate: CNc1cccc2c1C(=O)c1ccccc1C2=O
[A] 0.0135

[Q] Entry CN(C)c1ccc(C#Cc2ccc(-c3nc(C#N)c(C#N)n3C)cc2)cc1 please
[A] 0.84

----------
Assay: photoluminescence quantum yield (fraction); solvent given as SMILES
Settings: in CC#N
outcome_measure: photoluminescence quantum yield
# answer = number (no unit)

chem_smiles	photoluminescence quantum yield
Cc1ccc(C2=C3C=C(I)C(I)=[N+]3[B-](F)(F)n3c2cc(I)c3I)cc1	0.058
COc1cc(/C=C/c2nc3ccccc3s2)c(OC)cc1/C=C/c1nc(C)nc(/C=C/c2cc(OC)c(/C=C/c3nc4ccccc4s3)cc2OC)n1	0.03
COc1cccc(OC)c1C1=C2C(C)=CC(C)=[N+]2[B-](F)(F)n2c(C)cc(C)c21	0.54
COc1ccc(/C=C2\OC(=O)c3cc(N)ccc32)cc1	0.38

[Q] Fill blank: measured photoluminescence quantum yield of the compound COc1ccc(-n2nc(C(=O)c3ccc(Cl)cc3)c(N3CCCC3)n2)cc1 is ____.
[A] 0.004

----------
Experiment: photoluminescence quantum yield (fraction); solvent given as SMILES
Details: in CC#N
Kindly return class 1 if reported photoluminescence quantum yield is no lower than 0.5; return class 0 if it is lower.

These recorded examples may help you get a feel for the data.
compound	group
CN(C)c1cc(C#N)c(N(C)C)c(C#N)c1	class 1
CCC12N=N[C@](CC)(C3C4CCC(C4)C31)C1[C@@H]3CC[C@@H](C3)[C@H]12 (stereo partly specified)	class 0
F[B-]1(F)n2c(Cl)ccc2C(c2c(Cl)cccc2Cl)=C2C=CC(NCc3ccccc3)=[N+]21	class 1
Nc1ccc(/C=C/c2ccccc2)cc1	class 0
Cc1oc(-c2ccccc2)nc1C(=O)O	class 0
COc1ccc(-c2[nH]c(=O)n3c2-c2ccccc2C3=O)c(OC)c1	class 0

[Q] Determine whether this compound has photoluminescence quantum yield no lower than 0.5: COc1cc(C#Cc2ccccc2)c(C#Cc2ccccc2)cc1OC
[A] class 1

[Q] Same thing, different compound: Cn1nc(-c2ccccc2)c2n[nH]nc2c1=O
[A] class 0

[Q] Then this compound: COc1ccc(-c2cc3c(s2)c(C(C)=O)cc(=O)n3Cc2ccccc2)cc1
[A] class 1

[Q] Continue with COc1ccc2c(c1)[n+]([O-])nc(N)[n+]2[O-]
[A] class 0

----------
Assay: photoluminescence quantum yield (fraction); solvent given as SMILES
Settings: in CN(C)C=O
Lab note: anything with photoluminescence quantum yield at or over 0.1 counts as Condition met; the rest go in Condition not met.

molecule	group
COc1cc2c(cc1C=C(C#N)C#N)c1ccccc1n2C	Condition not met
CN(C)c1ccc(/C=C/c2nc3ccccc3s2)cc1	Condition not met
CCn1c2ccccc2c2cc(C#Cc3cc(C#Cc4ccc5c(c4)c4ccccc4n5CC)nc(S(C)(=O)=O)n3)ccc21	Condition met
NCCCCCCCCCCCCN1C(=O)c2ccc3c4ccc5c6c(ccc(c7ccc(c2c37)C1=O)c64)C(=O)NC5=O	Condition met
COc1cc(N(c2ccc(C=C(C#N)C#N)c(OC)c2)c2ccc(C=C(C#N)C#N)c(OC)c2)ccc1C=C(C#N)C#N	Condition not met
CCN(CC)c1ccc2cc3ccc(=[N+](CC)CC)cc-3oc2c1	Condition met

[Q] hey, is photoluminescence quantum yield for this one >= 0.1? C(=C\c1ccc(-c2ccc(/C=C/c3ccc(-n4c5ccccc5c5ccccc54)cc3)s2)s1)/c1ccc(-n2c3ccccc3c3ccccc32)cc1
[A] Condition met

[Q] Please answer likewise for CCn1c2sccc2c2c3nsnc3c3c4ccsc4n(CC)c3c21
[A] Condition met

[Q] Same thing, different molecule: Nc1ncnc2c1c(-c1ccc3ccccc3c1)nn2[C@H]1C[C@H](O)[C@@H](CO)O1
[A] Condition met

----------
Assay: photoluminescence quantum yield (fraction); solvent given as SMILES
Conditions: in CC#N
Threshold check on photoluminescence quantum yield: strictly below 0.05 is criterion met; on or above 0.05 is criterion not met.

molecule	group
COc1ccc(/C=C/C2=CC(/C=C/c3ccc(OC)cc3)=[O+][B-](OC(C)=O)(OC(C)=O)O2)cc1	criterion not met
COc1cc(OC)c2c(c1)C(=O)c1ccccc1-2	criterion met
Clc1nc(Cl)nc(Nc2ccc3c4cccc5cccc(c6cccc2c63)c54)n1	criterion met
Cc1ccc(C2CC(c3ccc(O)cc3)=NN2c2ccc(S(N)(=O)=O)cc2)cc1 (stereo not given)	criterion not met
COc1ccc(-n2c3ccccc3c3cc(C=C(C#N)C#N)ccc32)cc1	criterion met
Oc1ccc2ccccc2c1/C=N/C1CCCCC1/N=C/c1c(O)ccc2ccccc12 (stereo not given)	criterion not met
CN(C)c1ccc(/C=C/c2ccccn2)cc1	criterion met
CN1C(=O)/C(=C/c2ccncc2)N=C1c1ccccc1	criterion met

[Q] Dear reviewer, please state whether O=C(O)COc1ccc2[nH]c3c(c2c1)CCCC3=O has photoluminescence quantum yield strictly beneath 0.05.
[A] criterion met

[Q] Same thing, different molecule: C[C@]12SC(=O)C=C1c1nc(-c3ccc(O)cc3)[nH]c1C1=CC(=O)S[C@@]12C
[A] criterion not met

[Q] Again, but for CN(C)CCN(Cc1c2ccccc2c(CN(CCN(C)C)c2ccc([N+](=O)[O-])cc2[N+](=O)[O-])c2ccccc12)c1ccc([N+](=O)[O-])cc1[N+](=O)[O-]
[A] criterion met

[Q] Also check COc1nc(Nc2ccc3c4cccc5cccc(c6cccc2c63)c54)nc(OC)n1
[A] criterion not met

[Q] Then this molecule: CN(C)c1ccc(/C=C/C=C/C2=NC3C(=O)NC(N)=NC3N2[C@H]2C[C@H](O)[C@@H](CO)O2)cc1 (stereo not given in full)
[A] criterion not met

[Q] Next molecule: N#CC(/N=C/c1c(O)ccc2ccccc12)=C(C#N)/N=C/c1c(O)ccc2ccccc12
[A] criterion not met

[Q] Another molecule to check: COc1cc2c(cc1C=C(C#N)C#N)c1ccccc1n2C
[A] criterion met

[Q] Please give the result for CNC(=O)[C@H](C)NC(=O)c1cccc2c1C#Cc1c(NC(=O)[C@@H](NC(C)=O)C(C)C)cccc1OCCCO2 too.
[A] criterion met

[Q] Please give the result for Oc1ccccc1/C=N/CC/N=C/c1ccccc1O too.
[A] criterion not met

[Q] Entry to check: CC1(C)Cc2c(c3ccccc3c3nc4c5c(c6ccccc6c4nc23)OC(C)(C)C5)O1
[A] criterion not met

[Q] Same again, this time with COC(=O)C12N=N[C@](C(=O)OC)(C3C4CCC(C4)C31)C1[C@@H]3CC[C@@H](C3)[C@H]12 (stereo not given in full)
[A] criterion not met

[Q] Continue with O=c1[nH]c2[n+](c3ccccc13)[B-](F)(F)Oc1ccccc1-2
[A] criterion not met
